All figures here come from paper PMC3559867.

- Tested on: CCD-18Co human normal fibroblast colon cells
- EXPERIMENT_NOTES: MTT cytotoxicity, normal colon cells CCD-18Co
- Type: cell-based
- CONDITION_DETAILS: 24 h treatment, toxicity to normal cells
Give IC50 for every item shown.

MOLECULE	TARGET_DESC	IC50
CCCCCC(CC(=O)CCc1ccc(O)c(OC)c1)SC[C@H](NC(C)=O)C(=O)O (stereo partly shown) [M5, 5-N-acetylcysteinyl-[6]-shogaol]	CCD-18Co human normal fibroblast colon cells	> 100 µM

Would you mind listing IC50 for each of the following molecules?
1. CCCCCCCC(O)CCc1ccc(O)c(OC)c1 (stereo not shown) [M9]
2. CCCCCC(CC(O)CCc1ccc(O)c(OC)c1)SCC(NC(C)=O)C(=O)O (stereo not shown) [M4, 5-N-acetylcysteinyl-M6]
3. CCCCCC(CC(=O)CCc1ccc(O)c(OC)c1)SCC(NC(=O)CCC(N)C(=O)O)C(=O)NCC(=O)O (stereo not shown) [M13, 5-glutathiol-[6]-shogaol]

### Response
> 100 µM
> 100 µM
75.5 µM

###

Give pIC50 for every item shown.
- Test system: CCD-18Co human normal fibroblast colon cells
- EXPERIMENT_NOTES: MTT cytotoxicity, normal colon cells CCD-18Co
- Type: cell-based
- CONDITION_DETAILS: 24 h treatment, toxicity to normal cells
pIC50: −log10 of the molar value.

Would you mind listing pIC50 for each of the following compounds?
1. CCCCC/C=C/C(=O)CCc1ccc(O)c(OC)c1 [[6]-shogaol]
2. CCCCCC(CC(=O)CCc1ccc(O)c(OC)c1)SCC(N)C(=O)O (stereo not drawn) [M2, 5-cysteinyl-[6]-shogaol]
3. CCCCCCCC(=O)CCc1ccc(O)c(O)c1 [M8, 1-(3',4'-dihydroxyphenyl)-decan-3-one]

### Response
1. 4.36
2. 4.00
3. < 4.00

###

- Tested on: CCD-18Co human normal fibroblast colon cells
- EXPERIMENT_NOTES: MTT cytotoxicity, normal colon cells CCD-18Co
- Type: cell-based
- CONDITION_DETAILS: 24 h treatment, toxicity to normal cells
pIC50: −log10 of the molar value.
Give pIC50 for every item shown.

Some solved entries appear below for comparison.
COMPOUND	RECORDED_MEASUREMENT
CCCCCC(CC(=O)CCc1ccc(O)c(OC)c1)SC (stereo not drawn)	< 4.00
CCCCCCCC(=O)CCc1ccc(O)c(OC)c1	< 4.00

# evaluate next
Value of pIC50 reported for the compound CCCCCC(CC(O)CCc1ccc(O)c(OC)c1)SCC(N)C(=O)O (stereo not drawn) is < 4.00
